Cited source: the nanobody polyreactivity screen of Harvey et al. (2022)

METHOD DESCRIPTION: yeast display, Sf9 membrane polyspecificity reagent, FACS + sequencing; frameworks hold sequencing errors
RECORDED ENDPOINT: polyreactivity (PSR sort gate)

Examples with their reported polyreactivity (PSR sort gate) follow.
Would you kindly share the measured polyreactivity (PSR sort gate) for `QVQLVESGGGLVQAGGSLRLSCAASGCTFQTYAMGWYRQAPGKERELVAGITAGGSTNYADSVKGRFSISRDNAKNTVYLQMNSLKPEDTAVYYCAVRQISQTSDHRLQYDYWGQGTQVNVSS` ?
low polyreactivity

Would you kindly share the measured polyreactivity (PSR sort gate) for `QVQLVESGGGLVQAGGSLRLSCAASGFTIWSYAMGWYRQAPGKERELVAAINYRGTSTYYADSVKGRFTISRDNAKNTVYLQMHSLKPEDTAVYYCAARYYTWQRPTYDYWGQGTQVTVSS` ?
high polyreactivity

Would you kindly share the measured polyreactivity (PSR sort gate) for `QVQLVESGGGLVQAGGSLRLSCAASGNIFGQNAMGWYRQAPGKERELVAAISSNGGRTYYADSVKGRFTISRDNAKNTVYLQMNSLKPEDTAVYYCAAEAVYAYEWYYYWGQGTQVTVSS` ?
high polyreactivity

Would you kindly share the measured polyreactivity (PSR sort gate) for `QVQLVESGGGLVQAGGSLRLSCAASGSIFFWYTMGWYREAPGKERELVATITGSGSSTTYADSVKGRFTISRDNAKNTVYLQMNSLKPEDTAVYYCAAADIIDHSFPYDYWGQGTQVTVSS` ?
low polyreactivity

Would you kindly share the measured polyreactivity (PSR sort gate) for `QVQLVESGGGLVQAGGSLRLSCAASGFIFGANAMGWYRPAPGKERELVAAITWSAGRTYYADSVKGRFTISRVNAKNTVYLKMNSLKREDSAVYYCAKQRARQSPEVGYWGQGTQVTVSS` ?
high polyreactivity

Would you kindly share the measured polyreactivity (PSR sort gate) for `QVQLVESGGGLVQAGVSLRLSCAASGSTFTTNVMGWYIQAPGKERELVAAISWSSGSTYYADSVKGRFTISRDNAKNTVYLQMNSLKPEDTAVYYCAARLVIFYPYSRYYYWGQGTQVTVSS` ?
high polyreactivity

---
Would you kindly share the measured polyreactivity (PSR sort gate) for `QVQLVESGGGLVQAGGSLRLSCAASGRTFDRYAMGWYRQAPGKERELVAAITWSGGRTYYADSVKGRFTISRDNAKNTVYLQINSLKPEDTAVYYCAAAPRSYFTSEYWGQGTQVTVSS` ?
low polyreactivity

Would you kindly share the measured polyreactivity (PSR sort gate) for `QVQLVESGGGLVQAGGSLRLTCAASGFIFVTDAMGWYRQAPGKERELVAAITNSGGTTYYADSVKGRFTISRDNAKNTVYLQMNSLKPEDPAVYYCNKQWYTATYRESYYWGQGTQVTVSS` ?
low polyreactivity

Would you kindly share the measured polyreactivity (PSR sort gate) for `QVQLVESGGGLVQAGGSLRLSCAASGSIFVFYAMGWYRQAPGKEREFVAAMSISGGRTYYADSVKGRFTISRDIAKNTVYLQMNSLKPEDTAVYYCAASRVYTSITLYYWGQGTQVTVSS` ?
high polyreactivity

Would you kindly share the measured polyreactivity (PSR sort gate) for `QVQLVESGGGLVQAGGSLRLSCAASGFTFYYNAMGGYRQAPGKEREFVAGITRTGGSTYYADSVKGRFTISRDNAMNTVYLQIKSLKPEDTAVYYCAATHYYYGTSRYDYWGQVTQVTVSS` ?
high polyreactivity

Would you kindly share the measured polyreactivity (PSR sort gate) for `QVQLVESGGGLVQAGGSLRLSCAASGSTFHKYVMGWYRQAPGKEREFVAAISRRGTRTYYADSVKGRFTISRDNAKNTVYLQMNSLKPEDTAVYYCNVYYYRTYTHFLPGYEYWGQGTQVTVSS` ?
high polyreactivity

====

METHOD DESCRIPTION: yeast display, Sf9 membrane polyspecificity reagent, FACS + sequencing; frameworks hold sequencing errors
RECORDED ENDPOINT: polyreactivity (PSR sort gate)

Examples with their reported polyreactivity (PSR sort gate) follow.
Would you kindly share the measured polyreactivity (PSR sort gate) for `QVQLVESGGGLVQAGGSLRLSCAASGFTFTLNAMGWYRQAPGKERELVAGISSGGSTNYADSVKGRFTISRDNAKNTVYLQMNSLKPEDTAVYYCAADRGYVWRYDYWGQGTQVTVSS` ?
low polyreactivity

Would you kindly share the measured polyreactivity (PSR sort gate) for `QVQLVESGGGIVQAGGSLRLSCAASVFTFRANTMGWYRPAPGKERELVAAISPSGGSTYYADSVKGRFTISRDNAKNTVYLQMNSLKPEDTAVYYCNADIEYRPGHGRLGDYDYWGQGTQVTVSS` ?
low polyreactivity

Would you kindly share the measured polyreactivity (PSR sort gate) for `QVQLVESGGGLDQAGGSLRLSCADSGRTFYIYAMGWYRQAPGKERELVAAITSVGSTNYADSVKGRFTISRDNAKNTVYLQMNSLKPEDTAVYYCAAESTEGTSGDYDYWGQGTQVTVSS` ?
low polyreactivity

Would you kindly share the measured polyreactivity (PSR sort gate) for `QVQLQESGGGLVQACGSLRLSCAASGYIFSHQYMGWYRQAPGKERELVASISPGATTNYADSVKGRFTISRDNAKNTVYLQMNSLKPEDTAVYYYAVYQILDRRLSYWGQGTQVTVSC` ?
high polyreactivity

Would you kindly share the measured polyreactivity (PSR sort gate) for `QVQLVESGGGLVQAGGSLRLSCAASGFIFTYNAMGWYRQAPGKERELVASIRSTGGSTYYADSVKGRFTISRDNAKNTVYLQMNSLKPEDTAVYYCAARARGTNMYYWGQGTQVTVSS` ?
high polyreactivity

Would you kindly share the measured polyreactivity (PSR sort gate) for `QDQLVESGGGLVQAGGILRLSSSASGFTFAYYAMGWYRQSTGKERQLVAAISSRGGSTYYADTVKGRFSISRDNAKNTVYLQMNILKPEDTAVYYCAAEFGLWPYEYGYCGQGTQVTVSS` ?
high polyreactivity

Would you kindly share the measured polyreactivity (PSR sort gate) for `QVQLVESGGGLVQAGCSLLLICAASGRTFCFNTMGWYRQAPGKERELVASISGSGGRTYFADSVKGRFTISRDNEKNTVYFQMNSLKPEDTAVYYCAARRYSRDYDYWGQGTQVTVSS` ?
high polyreactivity

Would you kindly share the measured polyreactivity (PSR sort gate) for `QVQLVESGGGLVQAGGSLRLSCAASGLIFSAYAMGWYRQAPGKERELVAAISRRGTSTYYADSVKGRFTISRDNAKNTVYLQMNSLKPEDTGVYYCAADGYVFEGDYWGQGTQVTVSS` ?
high polyreactivity

---
Would you kindly share the measured polyreactivity (PSR sort gate) for `QVQLVESGGGLVQAGGSLRLSCAASGSTFYRNAMGWYRQAPGKERELVAVITERGGNTYYADSVKGRFTISRDNAKNTVYLQMNSLKPEDTAVYYCNKQGFVDRGRYRYYWGQGTQVTVSS` ?
high polyreactivity

Would you kindly share the measured polyreactivity (PSR sort gate) for `QVQLVESGGGLVQAGGSLRLSCAASGRIFSPYAMGWYRQAPGKERELVAAINSIGGSTYYADSVKGRFTISRDNAKNTVYLQMNSLKPEDTAVYYCAVKWYRLGLIRWGGYWGQGTQVTVSS` ?
high polyreactivity

Would you kindly share the measured polyreactivity (PSR sort gate) for `QDQLVESGGGLVQAGGSLRLTCAASGRTFTHYAMGWYRQAPVKERELVAAISRSGGTTYYADSVKGRFTISLDNAKNTVYLQMNSRKPEDTAVYYCAARWWYRYNYDYWGQGTHVTVSS` ?
high polyreactivity

====

METHOD DESCRIPTION: yeast display, Sf9 membrane polyspecificity reagent, FACS + sequencing; frameworks hold sequencing errors
RECORDED ENDPOINT: polyreactivity (PSR sort gate)

Would you kindly share the measured polyreactivity (PSR sort gate) for `QVQLVESGGGLVQAGGSLRLSCAASGFTLSAYAMGLYRQAPGKERELVAGNSYTGGRTYYADSVKGRFTISRDNAKNTFYLQLISLKPEDTAVDYCAAALYSDVDAVATYGYYWGEGTQVTVSS` ?
low polyreactivity

Would you kindly share the measured polyreactivity (PSR sort gate) for `QVQLVESGGGLVQAGGSLRLSCAASGRIFRDYAMGWYRQAPGNERELVAAISWSGGSTYYADSVKGRFTISRDNAKNTVYLQMNSLKPEDTAVYYCAGDYYGGDSYRYDYWGQGTQVTVSS` ?
low polyreactivity

Would you kindly share the measured polyreactivity (PSR sort gate) for `QVQLVESGGGLVQAGGSLRLSCAPSGRTFRFYVMGWYRQAPGKERELVAAISRGGGSTYYADSVKGRFTISRDNAKNTVYLQMNSLKPEDTAVYYCAAKPYKTRSSYWGDYYWGQGTQVTVSS` ?
high polyreactivity

Would you kindly share the measured polyreactivity (PSR sort gate) for `QVQLVESGGGLVQAGGSLRLSCAASGFIFYDYALGWYRQAPGKERELVAAITQRGGSTYYADSVKGRFPISRDNAKKTVYLQMTSLKPVDTAVYSCAAKDAPYWFPITHVQPVDMDYWGQGTQVTVSS` ?
high polyreactivity

Continue with the next sequence.
Would you kindly share the measured polyreactivity (PSR sort gate) for `QVQLVESGGGLVQAGGSLRLSCSASGSIFGVYTMGWFRQAPGKERELVAAITSAGSTYADSVKGRFTISRDNAKNTVYLQMNSLKPEDTAVYYCNAESVLLSVLVELREPHEYWGQGTQVTVSS` ?
low polyreactivity
